Molecular target: human recombinant α1a adrenoceptor (Homo sapiens)
Construct: expressed in transfected cells; host or cells: CHO cells (membranes)
Sequence (P35348 1-466): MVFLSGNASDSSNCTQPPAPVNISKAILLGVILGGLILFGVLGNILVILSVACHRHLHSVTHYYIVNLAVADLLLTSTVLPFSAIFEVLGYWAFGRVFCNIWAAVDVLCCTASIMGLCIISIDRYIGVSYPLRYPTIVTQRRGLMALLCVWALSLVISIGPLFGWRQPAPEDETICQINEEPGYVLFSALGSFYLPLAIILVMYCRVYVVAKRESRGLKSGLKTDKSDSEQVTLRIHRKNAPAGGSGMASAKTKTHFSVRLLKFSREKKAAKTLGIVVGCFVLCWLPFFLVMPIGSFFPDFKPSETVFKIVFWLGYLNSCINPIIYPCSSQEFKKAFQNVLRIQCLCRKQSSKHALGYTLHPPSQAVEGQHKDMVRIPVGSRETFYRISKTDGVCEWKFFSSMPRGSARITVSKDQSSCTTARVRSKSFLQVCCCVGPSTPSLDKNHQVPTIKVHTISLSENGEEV
Assay: Radioligand binding ([3H]prazosin) on membranes of CHO cells expressing cloned α1a adrenoceptor
Conditions: read-out: Affinity (Ki) α1a

Compound: O=C1CC2(C=CN1CCN1CCN(c3cc(Cl)ccc3Cl)CC1)CCCC2 [Example 20]
Ki: 27.2 nM

// data source = patent EP1200406B1
